# Protocol: Cytotoxicity MTT assay in MRC5 cells
# Format: cell-based, human
# Details: human, tetrazolium assay, read-out: CC50 (95% CL)
Measured metric: CC50 at 2 days (µM)
Field format: number, assumed µM, no unit text.

Observe how each entry below is paired with its result.
[
  {
    "Compound": "NC(=O)c1ncn([C@@H]2O[C@H](CO)[C@@H](O)[C@H]2O)n1 [Ribavirin, reference compound]",
    "CC50 at 2 days (µM)": 2230
  },
  {
    "Compound": "COc1ccc(C(C)=O)c(O)c1 [PA, paeonol]",
    "CC50 at 2 days (µM)": 3140
  }
]

# return recorded CC50 at 2 days for input O=C(O)c1cc(O)c(O)c(O)c1 [GA, gallic acid]
218

# return recorded CC50 at 2 days for input O=C(OC[C@H]1O[C@@H](OC(=O)c2cc(O)c(O)c(O)c2)[C@H](OC(=O)c2cc(O)c(O)c(O)c2)[C@@H](OC(=O)c2cc(O)c(O)c(O)c2)[C@@H]1OC(=O)c1cc(O)c(O)c(O)c1)c1cc(O)c(O)c(O)c1 [PGG]
108

----------
IC50 reference
# System: HRV-2
# Protocol: Cytopathic effect inhibition assay (MTT), HRV-2 in HeLa cells
# Format: cell-based, human rhinovirus
# Details: Rhinovirus A, HRV2, HeLa, read-out: IC50 (95% CL) HRV-2
Field format: number, assumed µM, no unit text.

[
  {
    "Molecule": "NC(=O)c1ncn([C@@H]2O[C@H](CO)[C@@H](O)[C@H]2O)n1 [Ribavirin, reference compound]",
    "IC50 (µM)": 304
  },
  {
    "Molecule": "COc1ccc(C(C)=O)c(O)c1",
    "IC50 (µM)": 608
  },
  {
    "Molecule": "O=C(O)c1cc(O)c(O)c(O)c1",
    "IC50 (µM)": 427
  }
]

Read the next record carefully.
# return recorded IC50 for input `O=C(OC[C@H]1O[C@@H](OC(=O)c2cc(O)c(O)c(O)c2)[C@H](OC(=O)c2cc(O)c(O)c(O)c2)[C@@H](OC(=O)c2cc(O)c(O)c(O)c2)[C@@H]1OC(=O)c1cc(O)c(O)c(O)c1)c1cc(O)c(O)c(O)c1`
11.6
